SYSTEM_NAME: human Nav1.7 (Homo sapiens (Human), UniProt Q15858)
Sequence (Q15858 whole entry): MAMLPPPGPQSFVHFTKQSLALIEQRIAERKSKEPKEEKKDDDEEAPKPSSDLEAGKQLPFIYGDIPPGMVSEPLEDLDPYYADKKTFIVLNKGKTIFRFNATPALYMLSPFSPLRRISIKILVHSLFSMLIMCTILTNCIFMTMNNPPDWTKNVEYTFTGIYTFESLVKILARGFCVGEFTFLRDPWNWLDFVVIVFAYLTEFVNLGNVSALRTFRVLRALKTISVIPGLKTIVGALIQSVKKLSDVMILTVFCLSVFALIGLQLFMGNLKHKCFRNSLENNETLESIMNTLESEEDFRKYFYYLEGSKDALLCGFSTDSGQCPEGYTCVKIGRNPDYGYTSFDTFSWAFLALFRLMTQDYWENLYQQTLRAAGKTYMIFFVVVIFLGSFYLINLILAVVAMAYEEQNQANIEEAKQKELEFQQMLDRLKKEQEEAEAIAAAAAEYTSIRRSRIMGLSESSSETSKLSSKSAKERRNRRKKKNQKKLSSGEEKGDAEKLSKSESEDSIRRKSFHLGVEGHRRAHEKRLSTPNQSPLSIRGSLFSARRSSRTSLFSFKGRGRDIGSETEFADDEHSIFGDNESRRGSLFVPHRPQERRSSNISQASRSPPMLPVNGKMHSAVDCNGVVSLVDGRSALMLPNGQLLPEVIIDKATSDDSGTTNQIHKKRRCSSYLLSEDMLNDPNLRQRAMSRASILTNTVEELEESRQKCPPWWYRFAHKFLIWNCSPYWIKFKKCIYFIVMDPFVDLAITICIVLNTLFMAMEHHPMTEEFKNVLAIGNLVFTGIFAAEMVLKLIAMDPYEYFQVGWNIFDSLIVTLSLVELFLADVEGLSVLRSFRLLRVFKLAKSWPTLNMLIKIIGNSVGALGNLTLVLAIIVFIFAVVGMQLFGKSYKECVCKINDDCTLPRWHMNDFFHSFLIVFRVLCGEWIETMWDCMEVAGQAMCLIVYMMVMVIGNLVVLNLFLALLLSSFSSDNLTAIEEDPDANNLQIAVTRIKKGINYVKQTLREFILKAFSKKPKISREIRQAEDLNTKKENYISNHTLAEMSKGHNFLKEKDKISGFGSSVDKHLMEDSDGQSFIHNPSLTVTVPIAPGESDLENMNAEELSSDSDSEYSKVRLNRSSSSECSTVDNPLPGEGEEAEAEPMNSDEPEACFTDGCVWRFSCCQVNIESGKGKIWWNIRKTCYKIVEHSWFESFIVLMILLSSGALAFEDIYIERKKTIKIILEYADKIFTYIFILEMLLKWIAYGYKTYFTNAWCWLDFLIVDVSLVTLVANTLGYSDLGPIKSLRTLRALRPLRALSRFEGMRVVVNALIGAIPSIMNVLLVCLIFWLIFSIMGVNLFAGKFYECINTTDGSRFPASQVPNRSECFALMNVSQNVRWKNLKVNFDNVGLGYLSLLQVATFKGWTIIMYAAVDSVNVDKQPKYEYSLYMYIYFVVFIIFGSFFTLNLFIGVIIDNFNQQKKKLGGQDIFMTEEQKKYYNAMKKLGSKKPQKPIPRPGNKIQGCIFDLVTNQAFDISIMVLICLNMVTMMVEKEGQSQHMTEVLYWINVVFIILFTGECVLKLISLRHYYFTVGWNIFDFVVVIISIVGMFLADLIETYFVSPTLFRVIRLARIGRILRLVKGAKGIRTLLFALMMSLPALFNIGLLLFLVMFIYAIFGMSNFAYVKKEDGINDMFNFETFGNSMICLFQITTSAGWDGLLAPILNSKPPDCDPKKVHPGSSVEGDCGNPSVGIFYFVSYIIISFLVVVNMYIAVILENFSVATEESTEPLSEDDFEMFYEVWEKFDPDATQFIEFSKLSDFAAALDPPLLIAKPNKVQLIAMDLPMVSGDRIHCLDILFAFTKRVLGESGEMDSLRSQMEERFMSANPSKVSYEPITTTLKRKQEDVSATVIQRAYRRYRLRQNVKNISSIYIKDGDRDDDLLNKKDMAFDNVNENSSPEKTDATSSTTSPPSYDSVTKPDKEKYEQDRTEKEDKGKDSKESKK
PROTOCOL_TEXT: Nav 1.7 in vitro PatchXpress (PX) assay
Format: cell-based
MEASUREMENT_TYPE: IC50
Your answer should be a number followed by the unit of measure.

[
  {
    "QUERY_SMILES": "COc1ccccc1C[C@@H](C)Oc1ncc(-c2cc(F)c(C(=O)NS(C)(=O)=O)cc2C)cc1Cl",
    "IC50": "0.0929 µM"
  },
  {
    "QUERY_SMILES": "CC[C@H](Oc1ncc(-c2cc(F)c(C(=O)NS(C)(=O)=O)cc2C)cc1Cl)c1ccc(F)cc1",
    "IC50": "0.0735 µM"
  }
]

API: value(readout=IC50, system=human Nav1.7 (Homo sapiens (Human), UniProt Q15858)) for record `CC1(Oc2ncc(-c3cc(F)c(C(=O)NS(C)(=O)=O)cc3Cl)cc2Cl)CCC1`
0.1 µM

API: value(readout=IC50, system=human Nav1.7 (Homo sapiens (Human), UniProt Q15858)) for record `CS(=O)(=O)NC(=O)c1cc(Cl)c(-c2cnc(Oc3ccc(F)c(F)c3F)c(Cl)c2)cc1F`
0.0823 µM

API: value(readout=IC50, system=human Nav1.7 (Homo sapiens (Human), UniProt Q15858)) for record `COc1cc(C(=O)NS(C)(=O)=O)ccc1-c1cnc(OCc2ccccc2Cl)c(Cl)c1`
0.095 µM

API: value(readout=IC50, system=human Nav1.7 (Homo sapiens (Human), UniProt Q15858)) for record `COc1cc(C(=O)NS(C)(=O)=O)ccc1-c1cnc(OCCc2ccccc2)c(C#N)c1`
0.0942 µM

API: value(readout=IC50, system=human Nav1.7 (Homo sapiens (Human), UniProt Q15858)) for record `CCc1ccc(C)cc1Oc1ncc(-c2cc(F)c(C(=O)NS(C)(=O)=O)cc2C)cc1Cl`
0.0663 µM

API: value(readout=IC50, system=human Nav1.7 (Homo sapiens (Human), UniProt Q15858)) for record `COc1cc(C(=O)NS(C)(=O)=O)ccc1-c1cnc(Oc2cc(Cl)cc(Cl)c2)c(Cl)c1`
0.0345 µM

API: value(readout=IC50, system=human Nav1.7 (Homo sapiens (Human), UniProt Q15858)) for record `CC[C@H](Cc1ccccc1)Oc1ncc(-c2cc(F)c(C(=O)NS(C)(=O)=O)cc2Cl)cc1Cl`
0.0974 µM

Origin of the recorded values: patent US9663508B2
